Every entry's value here was drawn from ChEMBL document CHEMBL4396973.

Target: Neutrophil elastase (Homo sapiens)
Sequence (P08246 whole entry): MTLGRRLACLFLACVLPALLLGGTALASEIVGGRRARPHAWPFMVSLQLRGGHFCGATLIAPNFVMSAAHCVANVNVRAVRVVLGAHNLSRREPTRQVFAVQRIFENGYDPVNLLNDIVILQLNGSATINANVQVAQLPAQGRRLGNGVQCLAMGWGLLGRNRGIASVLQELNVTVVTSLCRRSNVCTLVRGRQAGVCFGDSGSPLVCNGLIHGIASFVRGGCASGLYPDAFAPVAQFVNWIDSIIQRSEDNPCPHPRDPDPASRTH
Assay: Inhibition of human neutrophil elastase using MeOSuc-AAPV-AMC as substrate incubated for 40 mins by FLINT assay
value.type: log10 of IC50 (log10 of the value in µM)
log10 IC50, µM

Solved cases (5 shown):
N=C(N)c1ccc(CC2OB(O)c3ccccc32)cc1OCc1cccnc1 (racemic) :: 1.10
N=C(N)c1ccc(C2Cc3ccccc3B(O)O2)cc1OCc1cccc(Cl)c1 (racemic) :: 1.20
Cc1ccc2c(c1)C(Cc1ccc(C(=N)N)c(OCc3cccnc3)c1)OB2O (racemic) :: 1.40
N=C(N)c1ccc(CC2OB(O)c3cc(F)ccc32)cc1OCc1cccnc1 (racemic) :: 0.20
N=C(N)c1ccc(C2Cc3ccccc3B(O)O2)cc1OCc1cccnc1 (racemic) :: 0.70

For every item in the list below, what is its measured log10 of IC50?
1. N=C(N)c1ccc(C2Cc3ccccc3B(O)O2)cc1OCc1ccccc1Cl (racemic)
2. N=C(N)c1ccc(C2Cc3ccc(F)cc3B(O)O2)cc1OCc1cccnc1 (racemic)
3. N=C(N)c1ccc(CC2OB(O)c3ccc(F)cc32)cc1OCc1cccnc1 (racemic)
4. N=C(N)c1ccc(C2Cc3cc(Cl)c(F)cc3B(O)O2)cc1OCc1cccnc1 (racemic)
5. Cc1cccc2c1B(O)OC(c1ccc(C(=N)N)c(OCc3cccnc3)c1)C2 (racemic)

1. 0.80
2. 1.50
3. 2.00
4. 0.10
5. -0.10

---

Assign IC50 to each entry below.
Target: UniProt Q9Y5Y6
Sequence (Q9Y5Y6 whole entry, the tested form may be a part): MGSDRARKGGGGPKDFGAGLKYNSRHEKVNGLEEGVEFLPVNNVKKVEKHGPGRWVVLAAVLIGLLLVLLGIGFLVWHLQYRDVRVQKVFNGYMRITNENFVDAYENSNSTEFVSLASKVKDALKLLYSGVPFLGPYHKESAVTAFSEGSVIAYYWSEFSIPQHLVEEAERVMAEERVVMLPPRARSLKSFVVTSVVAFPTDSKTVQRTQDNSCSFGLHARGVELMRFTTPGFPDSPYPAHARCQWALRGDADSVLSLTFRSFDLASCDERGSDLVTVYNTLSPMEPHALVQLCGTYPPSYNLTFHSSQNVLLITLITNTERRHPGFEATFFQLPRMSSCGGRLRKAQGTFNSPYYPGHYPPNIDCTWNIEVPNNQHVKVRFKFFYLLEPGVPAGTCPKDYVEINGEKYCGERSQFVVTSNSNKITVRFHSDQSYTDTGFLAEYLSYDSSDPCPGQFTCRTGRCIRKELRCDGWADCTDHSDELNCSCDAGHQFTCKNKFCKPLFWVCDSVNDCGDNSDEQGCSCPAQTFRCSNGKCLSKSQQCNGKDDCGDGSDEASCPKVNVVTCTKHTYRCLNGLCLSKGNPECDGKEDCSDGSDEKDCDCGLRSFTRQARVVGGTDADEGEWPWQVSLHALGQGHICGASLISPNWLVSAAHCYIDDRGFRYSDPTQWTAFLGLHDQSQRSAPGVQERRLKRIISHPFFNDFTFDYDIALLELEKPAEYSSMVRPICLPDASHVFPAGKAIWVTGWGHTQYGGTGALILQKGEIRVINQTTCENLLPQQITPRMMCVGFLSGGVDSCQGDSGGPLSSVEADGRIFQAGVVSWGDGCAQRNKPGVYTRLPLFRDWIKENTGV
Assay: Inhibition of recombinant human N-terminal Met and 6-His-tagged matriptase (G596 to V855 residues) expressed in Escherichia coli using Boc-QAR-AMC as substrate incubated for 40 mins by FLINT assay
One number for each entry, in µM.

Solved cases (4 shown):
COc1ccc2c(c1)C(Cc1ccc(C(=N)N)c(OCc3cccnc3)c1)OB2O (racemic) :: 25.1
N=C(N)c1ccc(C2Cc3ccccc3B(O)O2)cc1OCc1cccc(Cl)c1 (racemic) :: 0.0126
N=C(N)c1ccc(CC2OB(O)c3ccc(F)cc32)cc1OCc1cccnc1 (racemic) :: 39.8
N=C(N)c1ccc(C2Cc3ccc(F)cc3B(O)O2)cc1OCc1cccnc1 (racemic) :: 10

# input compound: "Cl.N=C(N)c1ccc([C@H]2Cc3ccc(C(F)(F)F)cc3B(O)O2)cc1OCc1cccnc1" ; wanted: its IC50
1.26

---

Assign pIC50 to each entry below.
Target: Kallikrein-5 (Homo sapiens, UniProt Q9Y337)
Sequence (Q9Y337 whole entry): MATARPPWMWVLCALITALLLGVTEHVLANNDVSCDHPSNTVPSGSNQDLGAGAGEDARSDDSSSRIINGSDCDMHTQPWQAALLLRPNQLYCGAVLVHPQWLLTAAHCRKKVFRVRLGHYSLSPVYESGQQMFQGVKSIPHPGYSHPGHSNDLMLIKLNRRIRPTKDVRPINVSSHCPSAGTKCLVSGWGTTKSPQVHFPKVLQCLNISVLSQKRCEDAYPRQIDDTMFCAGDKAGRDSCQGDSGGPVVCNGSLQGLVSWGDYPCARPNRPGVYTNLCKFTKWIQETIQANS
Test: Inhibition of human recombinant 6His-Q-FLAG-tagged KLK5 expressed in baculovirus infected Sf9 insect cells using (Tos-Gly-Pro-Arg)2[R110].2TFA as substrate measured at 30 secs interval for 5 mins using 1 x 10'10M enzyme by FLINT assay
Answers are plain numbers, as −log10 of the molar value.

N=C(N)c1ccc(CC2OB(O)c3cc(C(F)(F)F)ccc32)cc1OCc1cccnc1 (racemic) :: 8.60

For every item in the list below, what is its measured pIC50?
1. N=C(N)c1ccc(CC2OB(O)c3ccccc32)cc1OCc1cccnc1 (racemic)
2. N=C(N)c1ccc(C2Cc3ccccc3B(O)O2)cc1OCc1cccc(Cl)c1 (racemic)

1. 8.20
2. 8.30

For every item in the list below, what is its measured pIC50?
1. Cc1ccc2c(c1)C(Cc1ccc(C(=N)N)c(OCc3cccnc3)c1)OB2O (racemic)
2. N=C(N)c1ccc(C2Cc3cc(Cl)c(F)cc3B(O)O2)cc1OCc1cccnc1 (racemic)
3. COc1ccc2c(c1)C(Cc1ccc(C(=N)N)c(OCc3cccnc3)c1)OB2O (racemic)
4. N=C(N)c1ccc(CC2OB(O)c3cc(F)ccc32)cc1OCc1cccnc1 (racemic)
5. N=C(N)c1ccc(C2Cc3ccc(F)cc3B(O)O2)cc1OCc1cccnc1 (racemic)

1. 8.10
2. 8.90
3. 7.60
4. 8.80
5. 8.10

For every item in the list below, what is its measured pIC50?
1. Cc1cccc2c1B(O)OC(c1ccc(C(=N)N)c(OCc3cccnc3)c1)C2 (racemic)
2. N=C(N)c1ccc(CC2OB(O)c3ccc(F)cc32)cc1OCc1cccnc1 (racemic)
3. N=C(N)c1ccc(C2Cc3ccccc3B(O)O2)cc1OCc1ccccc1Cl (racemic)
4. N=C(N)c1ccc(C2Cc3ccccc3B(O)O2)cc1OCc1cccnc1 (racemic)

1. 7.60
2. 8.00
3. 8.10
4. 8.40

# input molecule: N=C(N)c1ccc(C2Cc3ccc(C(F)(F)F)cc3B(O)O2)cc1OCc1cccnc1 (racemic) ; wanted: its pIC50
9.30
